# SUBJECT OF TEST: Lysine-specific histone demethylase 1A (Homo sapiens, UniProt O60341)
MEASURED METRIC: IC50

[[record]]
smiles_text = "C/C(=N\\NC(=O)c1cccc(S(=O)(=O)N2CCN(C)CC2)c1)c1cc(Cl)ccc1O"
subject_of_test = "Lysine-specific histone demethylase 1A (Homo sapiens, UniProt O60341)"
measured_metric = "IC50"
measurement = "13 nM"


###

# SUBJECT OF TEST: Lysine-specific histone demethylase 1A (Homo sapiens)
# ASSAY NOTES: Inhibition of recombinant LSD1 (unknown origin) incubated for 1 hr
pIC50: −log10 of the molar value.
MEASURED METRIC: pIC50

[[record]]
molecule = "Oc1ccc(/C=C/c2cc(O)cc(O)c2)cc1 [RESVERATROL]"
measurement = 4.82


Source of measurements: ChEMBL document CHEMBL5107981
